Test system: Plasmodium falciparum
Test: Screen against P. falciparum Asexual Blood Stage (ABS), at 5uM
Type: functional, Dd2
Conditions: tested at 5 uM
Hit rate of the full screen: of about 65,000 compounds, about 2,100 (3.2%) showed an effect of 50% or more. The median lay at about -52%. The full list was thinned out, with strong results kept by preference.
Would you mind labelling by INHIBITION? At or over -30% is condition met, under is condition not met.

>  <Molecule>
Cn1cc(CN2CCCC(CCc3ccc(F)cc3)C2)cn1 (stereo not drawn)

>  <Assayed target>
Plasmodium falciparum

>  <Qualitative label>
condition met

$$$$
>  <Molecule>
CN(C)[C@@H]1CCN(C(=O)Cc2ccc(F)cc2)[C@H]1Cc1cnn(C)c1

>  <Assayed target>
Plasmodium falciparum

>  <Qualitative label>
condition met

$$$$
>  <Molecule>
O=C1CC[C@H]2[C@@H](CCN2Cc2ccco2)N1

>  <Assayed target>
Plasmodium falciparum

>  <Qualitative label>
condition not met

$$$$
>  <Molecule>
Cc1cc(NC(=O)NC2CCN(C(C)C)CC2)c2ncccc2c1

>  <Assayed target>
Plasmodium falciparum

>  <Qualitative label>
condition met

$$$$
>  <Molecule>
CC[C@@H]1N(C)CCC[C@]12CCC(=O)N2Cc1ccncc1

>  <Assayed target>
Plasmodium falciparum

>  <Qualitative label>
condition met

$$$$
>  <Molecule>
CN1CCCc2c1nc1c(c2N)CCCC1

>  <Assayed target>
Plasmodium falciparum

>  <Qualitative label>
condition met

$$$$
>  <Molecule>
c1coc(-c2nc(CNC3CCC4(CCNCC4)CC3)no2)c1

>  <Assayed target>
Plasmodium falciparum

>  <Qualitative label>
condition met

$$$$
>  <Molecule>
CC(C)N1CC[C@@H]2OC[C@H](C(=O)Nc3cccnc3)C[C@@H]2C1

>  <Assayed target>
Plasmodium falciparum

>  <Qualitative label>
condition not met

$$$$
>  <Molecule>
O=C(Cc1ccccc1)N1C[C@@H]2OCCN(CC3CCCO3)[C@@H]2C1 (stereo partly drawn)

>  <Assayed target>
Plasmodium falciparum

>  <Qualitative label>
condition not met

$$$$
>  <Molecule>
O=C(CCc1ccccc1)N1C[C@H]2CCN[C@H]2C1

>  <Assayed target>
Plasmodium falciparum

>  <Qualitative label>
condition met

$$$$
>  <Molecule>
Cn1cc(CN2CCCC(CCc3ccc(F)c(F)c3)C2)cn1 (stereo not drawn)

>  <Assayed target>
Plasmodium falciparum

>  <Qualitative label>
condition met

$$$$
>  <Molecule>
Cn1cc(CN2CC[C@H]3CO[C@H](CNc4ncccn4)[C@H]3C2)cn1

>  <Assayed target>
Plasmodium falciparum

>  <Qualitative label>
condition not met

$$$$
>  <Molecule>
CN1CCc2nc3c(c(N)c2C1)CCCN3C

>  <Assayed target>
Plasmodium falciparum

>  <Qualitative label>
condition met

$$$$
>  <Molecule>
CO[C@@H]1CN(Cc2scnc2C)[C@@H]2CCCO[C@@H]21

>  <Assayed target>
Plasmodium falciparum

>  <Qualitative label>
condition not met

$$$$
>  <Molecule>
CC(C)(C)n1ncc2c1NC(=O)CSC2c1ccsc1 (stereo not drawn)

>  <Assayed target>
Plasmodium falciparum

>  <Qualitative label>
condition not met

$$$$
>  <Molecule>
Cn1cc(CN2CCCC(CCc3ccc(F)cc3F)C2)cn1 (stereo not drawn)

>  <Assayed target>
Plasmodium falciparum

>  <Qualitative label>
condition met

$$$$
>  <Molecule>
Cn1cc(CN2CC[C@@H]3[C@@H]2CCN3C(=O)Cc2cccc(F)c2)cn1

>  <Assayed target>
Plasmodium falciparum

>  <Qualitative label>
condition not met

$$$$
>  <Molecule>
COCCn1cncc1Cn1ncc2ccccc2c1=O

>  <Assayed target>
Plasmodium falciparum

>  <Qualitative label>
condition not met

$$$$
>  <Molecule>
CC(C)CN1CCC2(CC1)C(=O)Nc1ccc(C(=O)N(C)C)cc12

>  <Assayed target>
Plasmodium falciparum

>  <Qualitative label>
condition met

$$$$
>  <Molecule>
Cc1ccc2nc(C)c(C)c(C(=O)N[C@H]3COC[C@@H]3N3CCCC3)c2c1

>  <Assayed target>
Plasmodium falciparum

>  <Qualitative label>
condition not met

$$$$
>  <Molecule>
Clc1ccc(-n2nnnc2C2(NCc3ccco3)CCCCC2)cc1

>  <Assayed target>
Plasmodium falciparum

>  <Qualitative label>
condition met

$$$$
>  <Molecule>
CC(C)CNC(=O)N1C[C@H]2CCN[C@H]2C1

>  <Assayed target>
Plasmodium falciparum

>  <Qualitative label>
condition met

$$$$
>  <Molecule>
CCC12CN3CC(CC)(CN(C1)C3c1[nH]c(=O)[nH]c(=O)c1C)C2=O (stereo not drawn)

>  <Assayed target>
Plasmodium falciparum

>  <Qualitative label>
condition not met

$$$$
>  <Molecule>
COc1ccc(OC)c(C2SCC(=O)Nc3n[nH]cc32)c1 (stereo not drawn)

>  <Assayed target>
Plasmodium falciparum

>  <Qualitative label>
condition not met

$$$$
>  <Molecule>
Cc1cccc(CN2CCCC[C@H]3CN(c4ncccn4)C[C@H]32)c1

>  <Assayed target>
Plasmodium falciparum

>  <Qualitative label>
condition not met

$$$$
>  <Molecule>
Cn1cc(CN2CCN3C[C@H](Oc4cccnc4)C[C@H]3C2)cn1

>  <Assayed target>
Plasmodium falciparum

>  <Qualitative label>
condition not met

$$$$
>  <Molecule>
Cc1ccc(N2CCO[C@H]3CN(Cc4cnn(C)c4)C[C@H]32)nn1

>  <Assayed target>
Plasmodium falciparum

>  <Qualitative label>
condition met

$$$$
>  <Molecule>
COc1cc(C2SCC(=O)Nc3[nH]ncc32)cc(OC)c1OC (stereo not drawn)

>  <Assayed target>
Plasmodium falciparum

>  <Qualitative label>
condition not met

$$$$
>  <Molecule>
Cc1cccc(CN2CC[C@H]3[C@H]2CCN3Cc2cnn(C)c2)n1

>  <Assayed target>
Plasmodium falciparum

>  <Qualitative label>
condition not met

$$$$
>  <Molecule>
Cn1cc(CN2C[C@H](Oc3ncccc3F)[C@H]3OCCC[C@H]32)cn1

>  <Assayed target>
Plasmodium falciparum

>  <Qualitative label>
condition not met

$$$$
>  <Molecule>
COc1cccc(CNC(C)c2ccc(-n3ccnc3)cc2)c1O (stereo not drawn)

>  <Assayed target>
Plasmodium falciparum

>  <Qualitative label>
condition met

$$$$
>  <Molecule>
CCOc1cccc(CNC(C)c2ccc(-n3ccnc3)cc2)c1O (stereo not drawn)

>  <Assayed target>
Plasmodium falciparum

>  <Qualitative label>
condition met

$$$$
